So I've got a bunch of variants here, and I need their screen value values.
B1: unnamed (parent)
chain 1: DKEWILQKIYEIMRLLDELGHAEASMRVSDLIYEF
chain 2: not shown

Variants of: B1
Reported conditions: with partner chain of the complex shown; 12 nM peptide; read off a plot
Could you kindly put the unit after your number?

Ask: Respond only with screen value recorded for chain 1 L15A
Reply: 4.5%

Ask: Respond only with screen value recorded for chain 1 E18A
Reply: 1%

Ask: Respond only with screen value recorded for chain 1 I32A
Reply: 46%

Ask: Respond only with screen value recorded for chain 1 E3A
Reply: 4.5%

Ask: Respond only with screen value recorded for chain 1 I12A
Reply: 7%

Ask: Respond only with screen value recorded for chain 1 L16A
Reply: 23%

Ask: Respond only with screen value recorded for chain 1 Q7A
Reply: 19%
